Heads up, these compounds all have Ki values measured for Human σ1 receptor (Homo sapiens).

// known answers, use as guide
compound	study_system	Ki
CNCCN(C)c1cc2nccc(C3CCCN(Cc4ccccc4)C3)n2n1 (stereo not shown)	Human σ1 receptor (Homo sapiens)	> 1000 nM
c1ccc(CN2CCCC(c3ccnc4cc(-c5cncnc5)nn34)C2)cc1 (stereo not shown)	Human σ1 receptor (Homo sapiens)	> 1000 nM
COc1ccc(CN2CCCC(c3ccnc4c(CNCC5CCOCC5)c(C)nn34)C2)cc1 (stereo not shown)	Human σ1 receptor (Homo sapiens)	< 500 nM

Query: Enter reported Ki observed with Human σ1 receptor (Homo sapiens) for CN(C)c1ccc(-c2cc3nccc(C4CCCN(Cc5ccccc5)C4)n3n2)cc1 (stereo not shown)
Sequence (Q99720 whole entry): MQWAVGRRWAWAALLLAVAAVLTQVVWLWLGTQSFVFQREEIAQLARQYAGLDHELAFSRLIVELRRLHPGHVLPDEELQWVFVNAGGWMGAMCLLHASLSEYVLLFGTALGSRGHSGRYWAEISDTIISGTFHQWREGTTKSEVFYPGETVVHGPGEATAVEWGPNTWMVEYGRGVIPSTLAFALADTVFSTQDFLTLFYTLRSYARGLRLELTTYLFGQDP
Response: > 1000 nM

Query: Kindly state the measured Ki obtained for Cc1cnc2c(-c3ccncc3)cnn2c1C1CCCN(Cc2ccccc2)C1 (stereo not shown) with Human σ1 receptor (Homo sapiens).
Response: > 1000 nM

Query: Under Human σ1 receptor (Homo sapiens): Ki value of COc1cc(-c2c(C)nn3c(C4CCCN(Cc5ccccc5)C4)ccnc23)ccn1 (stereo not shown) ?
Response: > 1000 nM

Query: Hi! What's the reported Ki for Fc1ccccc1-c1cc2nccc(C3CCCN(Cc4ccccc4)C3)n2n1 (stereo not shown) on Human σ1 receptor (Homo sapiens)?
Response: 500 to 1000 nM

Query: What Ki appears in the records for this compound with Human σ1 receptor (Homo sapiens)? CCc1cc2nccc(C3CCCN(Cc4ccccc4)C3)n2n1 (stereo not shown)
Response: < 500 nM

Query: Lab request: please report Ki under test system Human σ1 receptor (Homo sapiens) for Cc1nn2c(C3CCCN(CCC(C)C)C3)ccnc2c1-c1ccncc1 (stereo not shown)
Response: < 500 nM

Query: Identify the measured Ki of Cc1nn2c(C3CCCN(Cc4ccccc4)C3)ccnc2c1COCc1ccccc1 (stereo not shown) for Human σ1 receptor (Homo sapiens).
Response: < 500 nM
